# experimental.protocol: Test 2: octanol/phosphate buffer partition coefficient of BPS with various cations
# Type: physicochemical
# experimental.setup: octanol/phosphate buffer pH 7, 37° C., BPS 240 μg/ml, cation added to give charges 20 times more
Structures can show the parent of a compound that is named as a salt.
Flag rule - PC of BPS, Excess × 20 less than 600 flags True; the remaining entries get False.

Recorded results for 5 compounds are shown here.
>  <compound>
CCN(CC)CC(=O)Nc1c(C)cccc1C [Lidocaine hydrochloride, reference compound]

>  <qualitative.label>
True

$$$$
>  <compound>
CCCCCCCC[N+](C)(C)Cc1ccccc1.[Cl-] [Octyldimethylbenzylammonium chloride]

>  <qualitative.label>
True

$$$$
>  <compound>
CCCCCCCCCCCCCCCCCC[N+](C)(C)C.[Cl-] [Stearyltrimethylammonium chloride]

>  <qualitative.label>
False

$$$$
>  <compound>
CCCCCCCCCCCCCCCC[N+](C)(C)C.[Cl-] [Cetyltrimethylammonium chloride]

>  <qualitative.label>
False

$$$$
>  <compound>
CCCCCCCCCCCCCC[N+](C)(C)Cc1ccccc1.[Cl-] [Myristyldimethylbenzylammonium chloride]

>  <qualitative.label>
False

$$$$

Shifting focus to the compound that follows.
Query string: # strict comparison: is reported PC of BPS, Excess × 20 < 600? input = CCCCCCCCCCCC[N+](C)(C)Cc1ccccc1.[Cl-] [Lauryldimethylbenzylammonium chloride]
Result string: False

The measured values listed here are drawn from patent US6919372B1.
